molecular target: Lysine-specific demethylase 5A (Homo sapiens, UniProt P29375); test: Inhibition of JARID1A overexpressed in human A549 cells assessed as H3K4me3/H3 ratio at 300 uM after 24 hrs by Western blot analysis; format: cell-based
Sequence (P29375 whole entry): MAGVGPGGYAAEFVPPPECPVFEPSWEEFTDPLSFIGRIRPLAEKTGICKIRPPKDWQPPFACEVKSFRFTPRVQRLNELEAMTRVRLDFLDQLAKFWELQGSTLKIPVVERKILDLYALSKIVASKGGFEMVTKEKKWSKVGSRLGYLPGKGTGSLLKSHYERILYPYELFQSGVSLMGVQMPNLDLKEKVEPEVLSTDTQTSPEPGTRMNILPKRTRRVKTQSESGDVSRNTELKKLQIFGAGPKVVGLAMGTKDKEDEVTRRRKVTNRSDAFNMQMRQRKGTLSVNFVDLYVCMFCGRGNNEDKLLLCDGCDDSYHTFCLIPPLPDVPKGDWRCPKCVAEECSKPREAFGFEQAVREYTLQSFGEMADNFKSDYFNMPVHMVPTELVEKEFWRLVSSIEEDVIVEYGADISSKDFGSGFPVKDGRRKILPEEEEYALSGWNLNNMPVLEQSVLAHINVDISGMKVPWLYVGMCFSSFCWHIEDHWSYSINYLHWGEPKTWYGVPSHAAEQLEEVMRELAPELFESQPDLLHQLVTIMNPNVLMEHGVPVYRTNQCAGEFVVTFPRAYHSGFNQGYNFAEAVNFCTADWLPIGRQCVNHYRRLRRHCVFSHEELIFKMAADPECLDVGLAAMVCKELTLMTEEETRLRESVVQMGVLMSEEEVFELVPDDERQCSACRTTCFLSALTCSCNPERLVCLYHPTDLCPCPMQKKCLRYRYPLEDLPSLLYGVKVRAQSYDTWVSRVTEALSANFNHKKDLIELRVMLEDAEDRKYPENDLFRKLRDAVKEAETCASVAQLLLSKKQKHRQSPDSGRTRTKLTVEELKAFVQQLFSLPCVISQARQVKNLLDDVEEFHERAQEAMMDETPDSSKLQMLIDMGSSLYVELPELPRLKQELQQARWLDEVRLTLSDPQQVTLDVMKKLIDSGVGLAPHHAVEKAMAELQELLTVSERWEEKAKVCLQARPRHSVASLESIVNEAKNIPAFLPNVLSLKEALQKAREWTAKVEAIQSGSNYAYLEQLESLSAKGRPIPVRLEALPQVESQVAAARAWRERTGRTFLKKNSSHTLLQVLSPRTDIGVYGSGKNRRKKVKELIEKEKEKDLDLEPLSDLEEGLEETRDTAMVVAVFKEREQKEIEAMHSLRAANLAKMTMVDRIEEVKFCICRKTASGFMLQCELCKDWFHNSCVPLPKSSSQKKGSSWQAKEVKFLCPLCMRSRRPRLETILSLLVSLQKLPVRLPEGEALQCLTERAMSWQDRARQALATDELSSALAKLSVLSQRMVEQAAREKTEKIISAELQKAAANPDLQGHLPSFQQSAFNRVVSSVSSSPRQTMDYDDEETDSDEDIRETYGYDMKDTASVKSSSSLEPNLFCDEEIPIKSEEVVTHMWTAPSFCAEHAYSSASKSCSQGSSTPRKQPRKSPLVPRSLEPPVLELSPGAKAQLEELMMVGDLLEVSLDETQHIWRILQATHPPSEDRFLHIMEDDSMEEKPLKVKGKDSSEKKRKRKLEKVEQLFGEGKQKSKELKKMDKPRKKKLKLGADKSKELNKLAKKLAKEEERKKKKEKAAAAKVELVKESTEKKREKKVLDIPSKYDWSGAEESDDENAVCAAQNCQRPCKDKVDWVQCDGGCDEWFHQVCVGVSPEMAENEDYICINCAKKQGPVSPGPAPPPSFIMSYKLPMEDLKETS
Reported Ratio values follow for various molecules
Give only the figure.

Example cases with answers are listed next.
{"chemical-structure": "CCCCCCN(C)CCCCC(=O)N(O)CCC(=O)O", "Ratio": 1}
{"chemical-structure": "CCCCCN(C)CCCCC(=O)N(O)CCC(=O)O", "Ratio": 1.08}
{"chemical-structure": "CCCCCN(C)CCCCC(=O)N(O)CCC(=O)OC", "Ratio": 1.61}

Now consider a different molecule.
Query the reported Ratio for Lysine-specific demethylase 5A (Homo sapiens, UniProt P29375); item: CCCCCCN(C)CCCCC(=O)N(O)CCC(=O)OC
1.65
